test system: Mus musculus; test: Toxicity in PS mouse allografted with mouse P388 cells assessed as survival at 50 ug/kg after 4 days; format: organism-based; settings: in vivo, 0.05 mg/kg, 96 h
reported.endpoint: Activity

[
  {
    "compound": "COc1cc2cc(c1Cl)N(C)C(=O)C[C@H](OC(=O)[C@H](C)N(C)C(C)=O)[C@]1(C)O[C@H]1[C@H](C)[C@@H]1C[C@@](OC)(NC(=O)O1)[C@H](OC)/C=C/C=C(\\C)C2",
    "result": "Non-toxic"
  },
  {
    "compound": "COc1cc2cc(c1Cl)NC(=O)/C=C/[C@]1(C)O[C@H]1[C@H](C)[C@@H]1C[C@@](O)(NC(=O)O1)[C@H](OC)/C=C/C=C(\\C)C2",
    "result": "Non-toxic"
  },
  {
    "compound": "COc1cc2cc(c1Cl)N(C)C(=O)C[C@H](OC(=O)[C@H](C)N(C)C(=O)C(C)C)[C@]1(C)O[C@H]1[C@H](C)[C@@H]1C[C@@](O)(NC(=O)O1)[C@H](OC)/C=C/C=C(\\C)C2",
    "result": "Toxic"
  },
  {
    "compound": "CCC(=O)N(C)[C@@H](C)C(=O)O[C@H]1CC(=O)N(C)c2cc(cc(OC)c2Cl)C/C(C)=C/C=C/[C@@H](OC)[C@@]2(O)C[C@H](OC(=O)N2)[C@@H](C)[C@@H]2O[C@@]12C",
    "result": "Toxic"
  },
  {
    "compound": "COc1cc2cc(c1Cl)N(C)C(=O)CC(O)C1(C)OC1C(C)C1CC(O)(NC(=O)O1)C(OC)/C=C/C=C(\\C)C2 (stereo not given)",
    "result": "Non-toxic"
  }
]

====

Recorded Activity for the following molecules
test system: Mus musculus; experiment: Toxicity in PS mouse allografted with mouse P388 cells assessed as change in body weight at 12.5 ug/kg relative to control; type: organism-based; conditions: in vivo, 0.0125 mg/kg
reported.endpoint: Activity (g)

[
  {
    "molecule": "CCCS[C@]12C[C@H](OC(=O)N1)[C@@H](C)[C@@H]1O[C@@]1(C)[C@@H](OC(=O)[C@H](C)N(C)C(=O)C(C)C)CC(=O)N(C)c1cc(cc(OC)c1Cl)C/C(C)=C/C=C/[C@H]2OC",
    "numeric.readout": 0.6
  },
  {
    "molecule": "COc1cc2cc(c1Cl)N(C)C(=O)C[C@H](OC(=O)C(C)C)[C@]1(C)O[C@H]1[C@H](C)[C@@H]1C[C@@](O)(NC(=O)O1)[C@H](OC)/C=C/C=C(\\C)C2OC(C)=O (stereo partly drawn)",
    "numeric.readout": -0.8
  },
  {
    "molecule": "COc1cc2cc(c1Cl)N(C)C(=O)C[C@H](OC(=O)[C@H](C)N(C)C(=O)C(C)C)[C@]1(C)O[C@H]1[C@H](C)[C@@H]1C[C@@](OC)(NC(=O)O1)[C@H](OC)/C=C/C=C(\\C)C2",
    "numeric.readout": -2.1
  },
  {
    "molecule": "CCC(=O)N(C)[C@@H](C)C(=O)O[C@H]1CC(=O)N(C)c2cc(cc(OC)c2Cl)C/C(C)=C/C=C/[C@@H](OC)[C@@]2(O)C[C@H](OC(=O)N2)[C@@H](C)[C@@H]2O[C@@]12C",
    "numeric.readout": -1.3
  },
  {
    "molecule": "C/C=C/C(=O)O[C@H]1CC(=O)N(C)c2cc(cc(OC)c2Cl)C/C(C)=C/C=C/[C@@H](OC)[C@@]2(O)C[C@H](OC(=O)N2)[C@@H](C)[C@@H]2O[C@@]12C",
    "numeric.readout": -2.5
  },
  {
    "molecule": "COc1cc2cc(c1Cl)N(C)C(=O)C[C@H](OC(=O)[C@H](C)N(C)C(=O)CC(C)C)[C@]1(C)O[C@H]1[C@H](C)[C@@H]1C[C@@](O)(NC(=O)O1)[C@H](OC)/C=C/C=C(\\C)C2",
    "numeric.readout": 1.3
  },
  {
    "molecule": "COc1cc2cc(c1Cl)NC(=O)/C=C/[C@]1(C)O[C@H]1[C@H](C)[C@@H]1C[C@@](O)(NC(=O)O1)[C@H](OC)/C=C/C=C(\\C)C2",
    "numeric.readout": -0.5
  },
  {
    "molecule": "CCO[C@]12C[C@H](OC(=O)N1)[C@@H](C)[C@@H]1O[C@@]1(C)[C@@H](OC(=O)[C@H](C)N(C)C(C)=O)CC(=O)N(C)c1cc(cc(OC)c1Cl)C/C(C)=C/C=C/[C@H]2OC",
    "numeric.readout": -0.3
  }
]

====

test system: Mus musculus; assay: Toxicity in PS mouse allografted with mouse P388 cells assessed as survival at 3.1 ug/kg after 4 days; assay type: organism-based; conditions: in vivo, 0.0031 mg/kg, 96 h

[
  {
    "smiles.data": "COc1cc2cc(c1Cl)N(C)C(=O)C[C@H](OC(=O)[C@H](C)N(C)C(C)=O)[C@]1(C)O[C@H]1[C@H](C)[C@@H]1C[C@@](O)(NC(=O)O1)[C@H](OC)/C=C/C=C(\\C)C2",
    "tested.system": "Mus musculus",
    "Activity": "Non-toxic"
  },
  {
    "smiles.data": "CCC(=O)O[C@H]1CC(=O)N(C)c2cc(cc(OC)c2Cl)C/C(C)=C/C=C/[C@@H](OC)[C@@]2(O)C[C@H](OC(=O)N2)[C@@H](C)[C@@H]2O[C@@]12C",
    "tested.system": "Mus musculus",
    "Activity": "Non-toxic"
  },
  {
    "smiles.data": "COc1cc2cc(c1Cl)N(C)C(=O)C[C@H](OC(=O)[C@H](C)N(C)C(=O)C(C)C)[C@]1(C)O[C@H]1[C@H](C)[C@@H]1C[C@@](OC)(NC(=O)O1)[C@H](OC)/C=C/C=C(\\C)C2",
    "tested.system": "Mus musculus",
    "Activity": "Non-toxic"
  }
]

====

The entries below are paired with their reported Activity.
system: Mus musculus; test: Toxicity in PS mouse allografted with mouse P388 cells assessed as change in body weight at 0.1 ug/kg relative to control; assay type: organism-based; conditions: in vivo, 0.0001 mg/kg

[
  {
    "compound": "COc1cc2cc(c1Cl)N(C)C(=O)C[C@H](OC(=O)C(C)C)[C@]1(C)O[C@H]1[C@H](C)[C@@H]1C[C@@](O)(NC(=O)O1)[C@H](OC)/C=C/C=C(\\C)C2OC(C)=O (some centres undefined)",
    "Activity / g": -0.5
  },
  {
    "compound": "CCC(=O)N(C)[C@@H](C)C(=O)O[C@H]1CC(=O)N(C)c2cc(cc(OC)c2Cl)C/C(C)=C/C=C/[C@@H](OC)[C@@]2(O)C[C@H](OC(=O)N2)[C@@H](C)[C@@H]2O[C@@]12C",
    "Activity / g": -1.1
  },
  {
    "compound": "COc1cc2cc(c1Cl)N(C)C(=O)C[C@H](OC(=O)[C@H](C)N(C)C(=O)C(C)C)[C@]1(C)O[C@H]1[C@H](C)[C@@H]1C[C@@](O)(NC(=O)O1)[C@H](OC)/C=C/C=C(\\C)C2",
    "Activity / g": 0.3
  },
  {
    "compound": "COc1cc2cc(c1Cl)N(C)C(=O)C[C@H](OC(=O)[C@H](C)N(C)C(=O)CC(C)C)[C@]1(C)O[C@H]1[C@H](C)[C@@H]1C[C@@](O)(NC(=O)O1)[C@H](OC)/C=C/C=C(\\C)C2",
    "Activity / g": 1.4
  }
]

====

system: Mus musculus; experiment: Toxicity in PS mouse allografted with mouse P388 cells assessed as change in body weight at 0.2 ug/kg relative to control; assay type: organism-based; details: in vivo, 0.0002 mg/kg
Kindly apply the following: true (1) if Activity is less than -1 g, false (0) in every other case.

[
  {
    "molecule": "COc1cc2cc(c1Cl)N(C)C(=O)/C=C/[C@]1(C)O[C@H]1[C@H](C)[C@@H]1C[C@@](O)(NC(=O)O1)[C@H](OC)/C=C/C=C(\\C)C2",
    "class.name": "false (0)"
  },
  {
    "molecule": "COc1cc2cc(c1Cl)N(C)C(=O)C[C@H](OC(=O)C(C)C)[C@]1(C)O[C@H]1[C@H](C)[C@@H]1C[C@@](O)(NC(=O)O1)[C@H](OC)/C=C/C=C(\\C)C2OC(C)=O (stereo partly specified)",
    "class.name": "true (1)"
  },
  {
    "molecule": "COc1cc2cc(c1Cl)N(C)C(=O)C[C@H](OC(=O)[C@H](C)N(C)C(=O)CC(C)C)[C@]1(C)O[C@H]1[C@H](C)[C@@H]1C[C@@](O)(NC(=O)O1)[C@H](OC)/C=C/C=C(\\C)C2",
    "class.name": "false (0)"
  },
  {
    "molecule": "COc1cc2cc(c1Cl)NC(=O)/C=C/[C@]1(C)O[C@H]1[C@H](C)[C@@H]1C[C@@](O)(NC(=O)O1)[C@H](OC)/C=C/C=C(\\C)C2",
    "class.name": "false (0)"
  },
  {
    "molecule": "COc1cc2cc(c1Cl)N(C)C(=O)C[C@H](OC(=O)[C@H](C)N(C)C(=O)C(C)C)[C@]1(C)O[C@H]1[C@H](C)[C@@H]1C[C@@](O)(NC(=O)O1)[C@H](OC)/C=C/C=C(\\C)C2",
    "class.name": "false (0)"
  },
  {
    "molecule": "CCC(=O)N(C)[C@@H](C)C(=O)O[C@H]1CC(=O)N(C)c2cc(cc(OC)c2Cl)C/C(C)=C/C=C/[C@@H](OC)[C@@]2(O)C[C@H](OC(=O)N2)[C@@H](C)[C@@H]2O[C@@]12C",
    "class.name": "true (1)"
  }
]
